Catalogue of t1/2 readings, one per entry.
test: Half life in mouse plasma assessed as esterase-mediated compound hydrolysis at 200 uM by HPLC method
Format: ADME, cell-free
Provide only the numeric value, understood in min.

CCCCOC(=O)C(C)(C)c1cc(O)c2c(c1)OC(C)(C)[C@@H]1CC[C@@H](CO)C[C@@H]21 3.1
CCCCOC(=O)C(C)(C)c1cc(O)c2c(c1)OC(C)(C)[C@@H]1CC=C(CO)C[C@@H]21 5
CCCCOC(=O)C(C)(C)c1cc(O)c2c(c1)OC(C)(C)[C@@H]1CC[C@@H](O)C[C@@H]21 2.7

Attention now turns to another entry.
Read off the recorded t1/2 for CCCCOC(=O)C(C)(C)c1cc(O)c2c(c1)OC(C)(C)[C@@H]1CC[C@H](O)C[C@@H]21
2.8

----------
target system: Cannabinoid receptor 2 (Homo sapiens, UniProt P34972)
Sequence (P34972 whole entry): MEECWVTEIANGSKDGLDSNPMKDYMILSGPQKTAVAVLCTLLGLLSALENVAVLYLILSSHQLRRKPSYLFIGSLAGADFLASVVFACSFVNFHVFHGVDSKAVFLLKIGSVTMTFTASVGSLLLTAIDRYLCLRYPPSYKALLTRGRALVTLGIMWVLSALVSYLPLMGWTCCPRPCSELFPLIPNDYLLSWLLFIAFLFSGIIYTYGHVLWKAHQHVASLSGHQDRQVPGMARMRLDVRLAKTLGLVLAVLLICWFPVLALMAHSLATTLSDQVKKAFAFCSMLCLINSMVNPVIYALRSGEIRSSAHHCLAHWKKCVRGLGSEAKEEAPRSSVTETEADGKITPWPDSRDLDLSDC
test: Agonist activity at human CB2 receptor expressed in HEK293 cells assessed as decrease in forskolin-stimulated cAMP levels after 30 mins
recorded endpoint: pEC50
In plain terms, pEC50 is the concentration in mol/L turned into minus its base-10 logarithm.

CCCCOC(=O)C(C)(C)c1cc(O)c2c(c1)OC(C)(C)[C@@H]1CC=C(CO)C[C@@H]21 8.24
CCCCOC(=O)C(C)(C)c1cc(O)c2c(c1)OC(C)(C)[C@@H]1CC[C@@H](O)C[C@@H]21 8.05

Read off the recorded pEC50 for CCCCOC(=O)C(C)(C)c1cc(O)c2c(c1)OC(C)(C)[C@@H]1CC[C@@H](CO)C[C@@H]21
9.52

----------
target system: Cannabinoid receptor 2 (Mus musculus, UniProt P47936)
Sequence (P47936 whole entry): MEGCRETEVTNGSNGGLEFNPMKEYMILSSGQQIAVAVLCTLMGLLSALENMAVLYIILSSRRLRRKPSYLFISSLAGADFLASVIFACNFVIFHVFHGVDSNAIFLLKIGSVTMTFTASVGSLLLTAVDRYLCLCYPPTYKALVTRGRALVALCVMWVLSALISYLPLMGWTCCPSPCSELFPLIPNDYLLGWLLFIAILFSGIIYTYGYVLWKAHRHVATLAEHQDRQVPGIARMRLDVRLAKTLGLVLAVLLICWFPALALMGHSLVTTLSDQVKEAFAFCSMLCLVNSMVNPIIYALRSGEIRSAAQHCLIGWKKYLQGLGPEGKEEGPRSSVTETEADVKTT
test: Displacement of [3H]CP55940 from mouse CB2 receptor expressed in HEK293 cell membranes by scintillation counting method
Catalogue of Ki readings, one per entry.

Record excerpt, results attached:
CC(C)(C(=O)O)c1cc(O)c2c(c1)OC(C)(C)[C@@H]1CC[C@@H](O)C[C@@H]21 > 10 µM
CC(C)(C(=O)O)c1cc(O)c2c(c1)OC(C)(C)[C@@H]1CC[C@H](O)C[C@@H]21 > 10 µM
CCCCOC(=O)Cc1cc(O)c2c(c1)OC(C)(C)[C@@H]1CC[C@@H](O)C[C@@H]21 0.317 µM
CCCCOC(=O)Cc1cc(O)c2c(c1)OC(C)(C)[C@@H]1CC[C@H](O)C[C@@H]21 0.654 µM
CC(C)(C(=O)O)c1cc(O)c2c(c1)OC(C)(C)[C@@H]1CC=C(CO)C[C@@H]21 > 10 µM
CC(C)(C(=O)O)c1cc(O)c2c(c1)OC(C)(C)[C@@H]1CC[C@@H](CO)C[C@@H]21 > 10 µM

State the measured Ki (Cannabinoid receptor 2 (Mus musculus, UniProt P47936)) of CC1(C)Oc2cc(CC(=O)O)cc(O)c2[C@@H]2C[C@@H](O)CC[C@H]21
> 10 µM

State the measured Ki (Cannabinoid receptor 2 (Mus musculus, UniProt P47936)) of CCCCOC(=O)C(C)(C)c1cc(O)c2c(c1)OC(C)(C)[C@@H]1CC[C@@H](CO)C[C@@H]21
0.0001 µM

State the measured Ki (Cannabinoid receptor 2 (Mus musculus, UniProt P47936)) of CC1(C)Oc2cc(CC(=O)O)cc(O)c2[C@@H]2C[C@H](O)CC[C@H]21
> 10 µM

----------
target system: UniProtKB P20272
Sequence (P20272 whole entry): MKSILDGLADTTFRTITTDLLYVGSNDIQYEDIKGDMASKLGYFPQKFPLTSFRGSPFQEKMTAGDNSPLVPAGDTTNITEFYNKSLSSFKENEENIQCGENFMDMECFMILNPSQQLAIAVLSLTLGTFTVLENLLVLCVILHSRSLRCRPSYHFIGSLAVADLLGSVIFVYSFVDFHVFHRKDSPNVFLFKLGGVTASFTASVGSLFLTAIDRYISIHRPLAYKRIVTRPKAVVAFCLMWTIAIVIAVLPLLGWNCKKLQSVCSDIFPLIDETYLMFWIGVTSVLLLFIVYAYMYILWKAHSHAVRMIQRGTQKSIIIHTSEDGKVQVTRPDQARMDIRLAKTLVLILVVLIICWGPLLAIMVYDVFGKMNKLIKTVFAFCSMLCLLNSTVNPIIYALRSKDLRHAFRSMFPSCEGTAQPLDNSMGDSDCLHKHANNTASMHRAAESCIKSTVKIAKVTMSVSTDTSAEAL
test: Binding affinity to rat CB1 receptor
recorded endpoint: pKi
In plain terms, pKi is the concentration in mol/L turned into minus its base-10 logarithm.

State the measured pKi (UniProtKB P20272) of CCCCCCC(C)(C)c1cc(O)c2c(c1)OC(C)(C)[C@@H]1CC=C(CO)C[C@@H]21
9.15

----------
test: Half life in rat plasma assessed as esterase-mediated compound hydrolysis at 200 uM by HPLC method
Format: ADME, cell-free
recorded endpoint: t1/2

Read off the recorded t1/2 for CCCCOC(=O)C(C)(C)c1cc(O)c2c(c1)OC(C)(C)[C@@H]1CC=C(CO)C[C@@H]21
39.1 min

----------
test: Half life in rat plasma assessed as esterase-mediated compound hydrolysis at 200 uM by HPLC method
Format: ADME, cell-free
recorded endpoint: t1/2 (min)
Provide only the numeric value, understood in min.

Record excerpt, results attached:
CCCCOC(=O)C(C)(C)c1cc(O)c2c(c1)OC(C)(C)[C@@H]1CC[C@@H](O)C[C@@H]21 10.2
CCCCOC(=O)C(C)(C)c1cc(O)c2c(c1)OC(C)(C)[C@@H]1CC[C@H](O)C[C@@H]21 5.6

Attention now turns to another entry.
Read off the recorded t1/2 for CCCCOC(=O)C(C)(C)c1cc(O)c2c(c1)OC(C)(C)[C@@H]1CC[C@@H](CO)C[C@@H]21
39.2
